molecular target: Mitogen-activated protein kinase kinase kinase 14 (Homo sapiens); assay: Inhibition of auto-phosphorylation of recombinant human NF-kappaB-inducing kinase (NIK/MAP3K14) activity
Sequence (Q99558 whole entry): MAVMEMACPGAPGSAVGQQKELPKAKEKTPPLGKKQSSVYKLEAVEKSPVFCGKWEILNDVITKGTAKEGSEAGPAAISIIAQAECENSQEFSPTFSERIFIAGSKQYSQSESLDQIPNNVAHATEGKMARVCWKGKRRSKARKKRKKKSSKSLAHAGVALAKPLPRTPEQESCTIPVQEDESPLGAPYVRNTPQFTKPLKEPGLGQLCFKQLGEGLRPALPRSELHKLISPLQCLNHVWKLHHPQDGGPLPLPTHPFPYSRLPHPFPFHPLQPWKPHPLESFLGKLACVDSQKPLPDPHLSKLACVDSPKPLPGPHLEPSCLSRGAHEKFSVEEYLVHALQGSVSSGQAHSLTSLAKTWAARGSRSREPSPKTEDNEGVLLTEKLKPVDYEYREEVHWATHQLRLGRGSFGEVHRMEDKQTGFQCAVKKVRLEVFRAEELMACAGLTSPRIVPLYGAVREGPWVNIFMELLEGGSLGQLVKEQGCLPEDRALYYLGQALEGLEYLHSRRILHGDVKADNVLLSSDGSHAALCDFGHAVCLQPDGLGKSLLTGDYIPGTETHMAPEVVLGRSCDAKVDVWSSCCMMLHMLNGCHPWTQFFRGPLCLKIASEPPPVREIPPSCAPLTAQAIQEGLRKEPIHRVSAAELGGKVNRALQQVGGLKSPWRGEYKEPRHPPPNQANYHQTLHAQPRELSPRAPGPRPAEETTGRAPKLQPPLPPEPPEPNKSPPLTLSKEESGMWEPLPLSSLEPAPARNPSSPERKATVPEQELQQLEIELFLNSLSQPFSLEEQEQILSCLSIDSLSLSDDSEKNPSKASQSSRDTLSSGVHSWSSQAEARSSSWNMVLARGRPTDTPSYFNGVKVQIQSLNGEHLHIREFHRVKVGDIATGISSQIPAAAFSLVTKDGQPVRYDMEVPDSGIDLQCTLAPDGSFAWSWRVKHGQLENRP
reported_metric: IC50

structure_smiles=CN1CC[C@](O)(c2cccc(-c3csc(-c4c[nH]c5ncccc45)n3)c2)C1=O reported_measurement="> 500 nM"

`O[C@@]1(c2cccc(-c3csc(-c4c[nH]c5ncc(F)c(F)c45)n3)c2)CCn2ccnc21` yielded IC50 of < 100 nM

Measured IC50, `Cc1c(-c2c[nH]c3ncccc23)n[nH]c1-c1cccc([C@]2(O)CCN(C)C2=O)c1` : > 500 nM

// recorded IC50 for `Cc1sc(-c2c[nH]c3nccnc23)nc1-c1cccc([C@]2(O)CCN(C)C2=O)c1` : < 100 nM

# IC50 of `O[C@@]1(c2cccc(-c3csc(-c4c[nH]c5nccnc45)n3)c2)COc2cccnc21` = > 500 nM

The molecule `CN1CC[C@@](O)(c2cccc(-c3csc(-c4c[nH]c5ncccc45)n3)c2)C1=O` showed IC50 equal to < 100 nM

Entry `O[C@@]1(c2cccc(-c3csc(-c4c[nH]c5ncncc45)n3)c2)CCc2cccnc21` ; IC50 = < 100 nM
